The following compounds are listed with their measured melting point values.

• CC(=O)NC[C@H]1CN(c2ccc3c(c2)CCSC3)C(=O)O1 [Example 10] = 112 to 114 °C (dec.)

Which melting point reading was recorded for the compound CC(=S)NC[C@H]1CN(c2ccc3c(c2)CCSC3)C(=O)O1 [Example 11] ?
112 to 114 °C (dec.)

Moving on to the next compound: CC(=S)NC[C@H]1CN(c2ccc3c(c2)COCC3)C(=O)O1 [Example 13]
165 °C (dec.)

Moving on to the next compound: CC(=S)NC[C@H]1CN(c2ccc3c(c2)CCS(=O)(=O)C3)C(=O)O1 [Example 12]
187 °C (dec.)

Where do the numbers come from? From patent US6972286B2.
